Biological target: T1, human BKB2R-derived epitope peptide (SEQ ID NO:73), PEG-biotin (human, also: PEG-biotin, site not given here)
T1 construct: also called immunogenic human BKB2R peptide fragment
T1 peptide: KEYSDEGHNVTAC
Assay: BLI (Octet), peptide-PEG-biotin on streptavidin sensor, antibody 500 nM
Where no end group is shown, it is not given here.
measurement_kind: Max Response
// no unit, no text: just the number

Looking for the measured Max Response of humanized anti-BKB2R antibody L2/H2 (antibody, human IgG2, kappa, V domains shown, also called H2/L2) VH: EVQLVESGGGLVQPGGSLRLSCVASGFTFSDYWMSWVRQAPGKGLEWVAEIRLKSDNYATHYAESVKGRFTISRDDAKNSLYLQMNSLRAEDTAVYYCTRDYYAMEYWGQGTLVTVSS VL: DIVMTQSPLSLPVTPGEPASISCRSSQTIVHSNGKTYLEWYLQKPGQSPQLLIYKVSNRFSGVPDRFSGSGSGTEFTLKISRVEAEDVGVYYCFQASHVPYTFGQGTKLEIKR , can you help?
0.171
